system: SR; assay type: cell-based; details: Leukemia; 10^−5 molar; 48 hours; SRB
Classify as follows. Reported Growth percent SR greater than or equal to 60%: satisfied. Reported Growth percent SR below: not satisfied.

In plain terms: is recorded Growth percent SR at least 60% for CNc1nc2ccccc2c2c(=O)c3cc(Cl)ccc3sc12 ?
not satisfied

In plain terms: is recorded Growth percent SR at least 60% for CCC(CC)Nc1nc2ccccc2c2c(=O)c3cc(Cl)ccc3sc12 ?
satisfied

In plain terms: is recorded Growth percent SR at least 60% for CCNc1nc2ccccc2c2c(=O)c3cc(Cl)ccc3sc12 ?
satisfied

In plain terms: is recorded Growth percent SR at least 60% for CCC(CO)Nc1nc2ccccc2c2c(=O)c3cc(Cl)ccc3sc12 (centres unmarked) ?
satisfied

---

Exercise: state measured LC50 for each of the compounds provided.
system: SF-539; type: cell-based; conditions: Homo sapiens; SF-539; five dose
Write the answer as a number in µM, unit excluded.

Find LC50 for CN(C)CCNc1nc2ccccc2c2c(=O)c3cc(Cl)ccc3sc12 on SF-539 and write it down.
5.67

Find LC50 for NCCNc1nc2ccccc2c2c(=O)c3cc(Cl)ccc3sc12 on SF-539 and write it down.
5.52

---

test system: HT29; type: cell-based; conditions: Colon cancer; 10^−5 molar; 48 hours; SRB
Exercise: state measured Growth percent HT29 for each of the molecules provided.
Write the answer as a number in %, unit excluded.

Return reported Growth percent HT29. Input molecule: CNc1nc2ccccc2c2c(=O)c3cc(Cl)ccc3sc12
114.79

Return reported Growth percent HT29. Input molecule: CCC(CC)Nc1nc2ccccc2c2c(=O)c3cc(Cl)ccc3sc12
116.70

Return reported Growth percent HT29. Input molecule: CCNc1nc2ccccc2c2c(=O)c3cc(Cl)ccc3sc12
68.21

Return reported Growth percent HT29. Input molecule: O=c1c2cc(Cl)ccc2sc2c(NCCO)nc3ccccc3c12
87.36

Return reported Growth percent HT29. Input molecule: O=c1c2cc(Cl)ccc2sc2c(N3CCN(Cc4ccccc4)CC3)nc3ccccc3c12
102.71

Return reported Growth percent HT29. Input molecule: O=c1c2ccc(Cl)cc2sc2c(Cl)nc3ccccc3c12
99.73

Return reported Growth percent HT29. Input molecule: CN(C)CCNc1nc2ccccc2c2c(=O)c3cc(Cl)ccc3sc12
−84.24

Return reported Growth percent HT29. Input molecule: CCC(CO)Nc1nc2ccccc2c2c(=O)c3cc(Cl)ccc3sc12 (stereo not shown)
78.24

Return reported Growth percent HT29. Input molecule: CC(C)CC(C)Nc1nc2ccccc2c2c(=O)c3cc(Cl)ccc3sc12 (stereo not shown)
121.02

Return reported Growth percent HT29. Input molecule: NCCNc1nc2ccccc2c2c(=O)c3cc(Cl)ccc3sc12
−83.30

---

system: MDA-MB-231/ATCC; assay type: cell-based; settings: MDA-MB-231/ATCC; 10^−5 molar
Exercise: state measured Growth percent for each of the compounds provided.
Write the answer as a number in %, unit excluded.

Return reported Growth percent. Input compound: O=c1c2cc(Cl)ccc2sc2c(NCCc3ccccc3)nc3ccccc3c12
79.55

Return reported Growth percent. Input compound: O=c1c2cc(Cl)ccc2sc2c(NCCCNCCO)nc3ccccc3c12
−66.53

Return reported Growth percent. Input compound: O=c1c2cc(Cl)ccc2sc2c(NCCN3CCOCC3)nc3ccccc3c12
59.20

Return reported Growth percent. Input compound: COc1ccc(CCNc2nc3ccccc3c3c(=O)c4cc(Cl)ccc4sc23)cc1
82.31

Return reported Growth percent. Input compound: O=c1c2cc(Cl)ccc2sc2c(NC3CCCCC3)nc3ccccc3c12
77.17

Return reported Growth percent. Input compound: O=c1c2cc(Cl)ccc2sc2c(NCc3ccc4c(c3)OCO4)nc3ccccc3c12
54.65

Return reported Growth percent. Input compound: CN(C)CCCNc1nc2ccccc2c2c(=O)c3cc(Cl)ccc3sc12
73.39

Return reported Growth percent. Input compound: O=c1c2cc(Cl)ccc2sc2c(NCc3ccccc3)nc3ccccc3c12
32.67

---

system: SNB-19; assay type: cell-based; settings: SNB-19; 10^−5 molar
measure: Growth percent

Return reported Growth percent. Input compound: O=c1c2cc(Cl)ccc2sc2c(NC3CCCCC3)nc3ccccc3c12
106.72%

Return reported Growth percent. Input compound: O=c1c2cc(Cl)ccc2sc2c(NCCc3ccccc3)nc3ccccc3c12
100.6%

Return reported Growth percent. Input compound: O=c1c2cc(Cl)ccc2sc2c(NCCCNCCO)nc3ccccc3c12
46.07%

Return reported Growth percent. Input compound: COc1ccc(CCNc2nc3ccccc3c3c(=O)c4cc(Cl)ccc4sc23)cc1
96.74%

Return reported Growth percent. Input compound: O=c1c2cc(Cl)ccc2sc2c(NCc3ccccc3)nc3ccccc3c12
102.93%

Return reported Growth percent. Input compound: O=c1c2cc(Cl)ccc2sc2c(NCc3ccc4c(c3)OCO4)nc3ccccc3c12
97.62%

Return reported Growth percent. Input compound: CN(C)CCCNc1nc2ccccc2c2c(=O)c3cc(Cl)ccc3sc12
97.83%

Return reported Growth percent. Input compound: O=c1c2cc(Cl)ccc2sc2c(NCCN3CCOCC3)nc3ccccc3c12
90.44%

---

tested on: NCI-H522
# note: exactly 2000 nM is not below, so it is condition not met; use condition met for GI50 strictly under it

# strict comparison: is reported GI50 < 2000 nM? input = CCNc1nc2ccccc2c2c(=O)c3cc(Cl)ccc3sc12 [Compound N2]
condition not met

# strict comparison: is reported GI50 < 2000 nM? input = O=c1c2cc(Cl)ccc2sc2c(NCCCNCCO)nc3ccccc3c12 [Compound N19]
condition met

# strict comparison: is reported GI50 < 2000 nM? input = CN(C)CCNc1nc2ccccc2c2c(=O)c3cc(Cl)ccc3sc12 [Compound N7]
condition met

# strict comparison: is reported GI50 < 2000 nM? input = O=c1c2cc(Cl)ccc2sc2c(NCc3ccccc3)nc3ccccc3c12 [Compound N25]
condition not met

# strict comparison: is reported GI50 < 2000 nM? input = NCCNc1nc2ccccc2c2c(=O)c3cc(Cl)ccc3sc12 [Compound N14]
condition met

---

tested on: HT29; type: cell-based; details: HT29; five dose
Exercise: state measured TGI for each of the compounds provided.

Find TGI for O=c1c2cc(Cl)ccc2sc2c(NCc3ccccc3)nc3ccccc3c12 on HT29 and write it down.
>100 µM

Find TGI for O=c1c2cc(Cl)ccc2sc2c(NCCCNCCO)nc3ccccc3c12 on HT29 and write it down.
4.00 µM

Find TGI for CCNc1nc2ccccc2c2c(=O)c3cc(Cl)ccc3sc12 on HT29 and write it down.
>100 µM

Find TGI for CN(C)CCNc1nc2ccccc2c2c(=O)c3cc(Cl)ccc3sc12 on HT29 and write it down.
3.36 µM

Find TGI for NCCNc1nc2ccccc2c2c(=O)c3cc(Cl)ccc3sc12 on HT29 and write it down.
3.29 µM

---

tested on: RPMI-8226; assay type: cell-based; conditions: Leukemia; 10^−5 molar; 48 hours; SRB
# note: exactly 80% is not below, so it is label 0; use label 1 for Growth percent RPMI-8226 strictly under it

# strict comparison: is reported Growth percent RPMI-8226 < 80%? input = O=c1c2ccc(Cl)cc2sc2c(Cl)nc3ccccc3c12 [Compound 3]
label 0

# strict comparison: is reported Growth percent RPMI-8226 < 80%? input = NCCNc1nc2ccccc2c2c(=O)c3cc(Cl)ccc3sc12 [Compound N14]
label 1

# strict comparison: is reported Growth percent RPMI-8226 < 80%? input = CC(C)CC(C)Nc1nc2ccccc2c2c(=O)c3cc(Cl)ccc3sc12 (stereo not shown) [Compound N13]
label 0

# strict comparison: is reported Growth percent RPMI-8226 < 80%? input = CN(C)CCNc1nc2ccccc2c2c(=O)c3cc(Cl)ccc3sc12 [Compound N7]
label 1

# strict comparison: is reported Growth percent RPMI-8226 < 80%? input = CCC(CO)Nc1nc2ccccc2c2c(=O)c3cc(Cl)ccc3sc12 (stereo not shown) [Compound N12]
label 1

# strict comparison: is reported Growth percent RPMI-8226 < 80%? input = O=c1c2cc(Cl)ccc2sc2c(N3CCN(Cc4ccccc4)CC3)nc3ccccc3c12 [Compound 11]
label 0

# strict comparison: is reported Growth percent RPMI-8226 < 80%? input = CCC(CC)Nc1nc2ccccc2c2c(=O)c3cc(Cl)ccc3sc12 [Compound N6]
label 0

# strict comparison: is reported Growth percent RPMI-8226 < 80%? input = CNc1nc2ccccc2c2c(=O)c3cc(Cl)ccc3sc12 [Compound N1]
label 0

# strict comparison: is reported Growth percent RPMI-8226 < 80%? input = O=c1c2cc(Cl)ccc2sc2c(NCCO)nc3ccccc3c12 [Compound N9]
label 0

Origin of values: patent US8927717B1
